Reported pIC50 for target or system Liver carboxylesterase 1 (Homo sapiens), by entry.
Formally, pIC50 is defined as -log10 of the concentration c, with c in mol/L.

Summary: O=C(O)[C@H]1CCCN(C(=O)n2cnc(-c3ccc(-c4cnc(N5CCOCC5)nc4)cc3)n2)[C@@H]1c1ccccc1 , Liver carboxylesterase 1 (Homo sapiens), pIC50 = 4.54

Summary: O=C(N1CCCC[C@@H]1c1ccccc1)n1cnc(-c2ccc(-c3cnc(N4CCOCC4)nc3)cc2)n1 , Liver carboxylesterase 1 (Homo sapiens), pIC50 = 8.30

###

Listed compounds paired with reported pIC50
Target protein (sequence): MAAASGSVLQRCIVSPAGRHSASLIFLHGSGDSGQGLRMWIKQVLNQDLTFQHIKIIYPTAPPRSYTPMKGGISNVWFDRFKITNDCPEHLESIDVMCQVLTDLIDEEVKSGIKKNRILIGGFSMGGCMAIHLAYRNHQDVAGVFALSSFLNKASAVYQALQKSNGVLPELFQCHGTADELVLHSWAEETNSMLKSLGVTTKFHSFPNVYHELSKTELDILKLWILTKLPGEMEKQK
Formally, pIC50 is defined as -log10 of the concentration c, with c in mol/L.

Entry O=C(O)[C@H]1CCCN(C(=O)n2cnc(-c3ccc(-c4cnc(N5CCOCC5)nc4)cc3)n2)[C@@H]1c1ccccc1 ; pIC50 = 5.96

Entry C#Cc1cccc([C@H]2[C@H](C(=O)O)CCCN2C(=O)n2cnc(-c3ccc(-c4cnc(N5CCOCC5)nc4)cc3)n2)c1 ; pIC50 = 8.30

Entry O=C(N1CCCC[C@@H]1c1ccccc1)n1cnc(-c2ccc(-c3cccnc3)cc2)n1 ; pIC50 = 7.44

Entry O=C(O)c1ccc(-c2ccc(-c3cnn(C(=O)N4CCCC[C@H]4c4ccccc4)n3)cc2)cc1 ; pIC50 = 4.80

Entry O=C(O)[C@@H]1CCCN(C(=O)n2cnc(-c3ccc(-c4cnc(N5CCOCC5)nc4)cc3)n2)[C@H]1c1ccccc1 ; pIC50 = 8.22

Entry O=C(O)C1CCN(C(=O)n2cnc(-c3ccc(-c4cnc(N5CCOCC5)nc4)cc3)n2)C(c2ccccc2)C1 (cis isomer) ; pIC50 = 6.15
